Test: Caco-2 permeation assay, bidirectional permeability
Type: in vitro ADME
Details: human, Caco-2, pH 7.4, 5 μM, Papp(B-A)/Papp(A-B)

{"columns": ["molecule", "efflux ratio at 2 h, 5 μM"],
 "data": [
  ["O=C(Nc1ccnc(C2CCC(F)(F)CC2)n1)c1ccc(NS(=O)(=O)CCO)cc1N1CC[C@]2(C(F)F)C[C@@H]2C1", "< 10"],
  ["CC1CN(c2nccc(NC(=O)c3ccc(NS(=O)(=O)CCO)cc3N3CC[Si](C)(C)CC3)n2)CCO1 (stereo not shown)", "< 10"],
  ["Cc1cc(NC(=O)c2ccc(NS(=O)(=O)NCCO)cc2N2CC[C@]3(C(F)F)C[C@@H]3C2)nc(N2CCC(F)(F)CC2)n1", "≥ 10"],
  ["CC(=O)NCCS(=O)(=O)Nc1ccc(C(=O)Nc2cccc(N3CCC(F)(F)CC3)n2)c(N2CC[Si](C)(C)CC2)c1", "< 10"],
  ["Cc1cc(NC(=O)c2cnc(NS(=O)(=O)CCO)cc2N2CC[Si](C)(C)CC2)nc(N2CCC(F)(F)CC2)n1", "< 10"],
  ["Cc1cc(NC(=O)c2ccc(NS(=O)(=O)CCO)cc2N2CC[C@@]3(C(F)F)C[C@H]3C2)nc(N2CCC(F)(F)CC2)n1 (single isomer, unassigned) [Example 29b]", "≥ 10"],
  ["Cc1cc(NC(=O)c2c(F)cc(NS(=O)(=O)CCO)cc2N2CC[Si](C)(C)CC2)nc(N2CCC(F)(F)CC2)n1", "< 10"],
  ["Cc1ccc(NC(=O)c2ccc(NS(=O)(=O)CCO)cc2N2CC[Si](C)(C)CC2)nc1N1CCOCC1", "< 10"],
  ["C[Si]1(C)CCN(c2cc(S(=N)(=O)C3CC3)ccc2C(=O)Nc2cccc(N3CCC(F)(F)CC3)n2)CC1 (stereo not shown)", "< 10"],
  ["O=C(Nc1ccnc(N2CCC(F)(F)CC2)n1)c1cc2cnn(CCO)c2cc1N1CCC2(CC1)CC2", "< 10"],
  ["Cc1cc(NC(=O)c2ccc(NS(=O)(=O)CCO)cc2N2CCC3CC3C2)nc(N2CCC(F)(F)CC2)n1 (stereo not shown)", "≥ 10"],
  ["C[Si]1(C)CCN(c2cc(NS(=O)(=O)CCO)ccc2C(=O)Nc2ccnc(N3CCC(F)(F)CC3)c2)CC1", "≥ 10"],
  ["C[Si]1(C)CCN(c2cc(NS(=O)(=O)CCO)ccc2C(=O)Nc2cncc(N3CCC(F)(F)CC3)n2)CC1", "< 10"],
  ["Cc1cc(NC(=O)c2ccc(S(=O)(=O)NCCO)cc2N2CC[C@@]3(C(F)F)C[C@H]3C2)nc(N2CCC(F)(F)CC2)n1", "< 10"],
  ["Cc1cc(NC(=O)c2c(F)cc(NS(=O)(=O)CCO)cc2N2CC[C@@]3(C(F)F)C[C@H]3C2)nc(N2CCC(F)(F)CC2)n1", "≥ 10"],
  ["C[Si]1(C)CCN(c2cc(NS(=O)(=O)CCO)ccc2C(=O)Nc2ccnc(N3CCCC(C#N)C3)n2)CC1 (stereo not shown)", "< 10"],
  ["Cc1cc(NC(=O)c2ccc(NS(=O)(=O)CCO)cc2N2CC[C@]3(C(F)F)C[C@@H]3C2)nc(N2CCC(F)(F)CC2)n1", "≥ 10"],
  ["C[Si]1(C)CCN(c2cc(NS(=O)(=O)CCO)ccc2C(=O)Nc2cccc(OCC(O)C(F)(F)F)n2)CC1 (stereo not shown)", "< 10"],
  ["Cc1cc(NC(=O)c2ccc(NS(=O)(=O)CCO)cc2N2CC[Si](C)(C)CC2)nc(N2CCOCC2)c1", "< 10"]
]}
